Cited source: patent US8802597B2

System: velvetleaf (Abutilon theophrasti)
assayExplanation: Test B pre/postemergence
Format: in vivo
testParameters: Preemergence, 125 g ai/ha; scale 0 to 100 (0 no effect, 100 complete control)
# Plant response rating, Velvetleaf values compiled below
parameter: Plant response rating, Velvetleaf

- CCOC(=O)c1nc(C2CC2)nc(NOC(C)(C)C)c1Br: 50
- COC(=O)c1nc(-c2ccc(F)cc2)nc(N)c1Br: 70
- Nc1nc(C2CC2)nc(C(=O)[O-])c1Br.[Na+]: 90
- COC(OC)c1nc(C2CC2)nc(N)c1F: 0
- CC=NNc1nc(C2CC2)nc(C(=O)OC)c1Br: 20
- COC(=O)c1nc(-c2ccc(Cl)cc2)nc(N)c1Br: 60
